Biological target: Mouse soluble TWEAK (mouse) (UniProt O54907)
Assay: competition ELISA: antibody pre-incubated with mouse soluble TWEAK, binding to coated mouse Fn14:Fc
// reported IC50 for each item listed
Entry rule: numbers only, all in ng/mL.

Query: IC50; subject: Antibody 34 (antibody, V domains shown, Humanized variant of antibody 305; also called humanized 305 variant 305-LC4 / 305-HC2) VH: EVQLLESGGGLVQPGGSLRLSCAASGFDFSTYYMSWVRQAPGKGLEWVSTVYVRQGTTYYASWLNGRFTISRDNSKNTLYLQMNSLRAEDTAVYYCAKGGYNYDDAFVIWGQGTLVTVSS VL: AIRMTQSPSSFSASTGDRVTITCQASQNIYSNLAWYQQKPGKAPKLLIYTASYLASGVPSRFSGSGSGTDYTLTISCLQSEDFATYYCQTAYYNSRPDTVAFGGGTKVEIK
5.9

Query: IC50; subject: Antibody 30 (antibody, V domains shown, Humanized variant of antibody 305; also called humanized 305 variant 305-LC1 / 305-HC10) VH: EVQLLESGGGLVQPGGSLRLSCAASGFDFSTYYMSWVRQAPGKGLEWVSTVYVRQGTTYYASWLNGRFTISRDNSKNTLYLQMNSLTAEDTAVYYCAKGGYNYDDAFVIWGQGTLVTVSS VL: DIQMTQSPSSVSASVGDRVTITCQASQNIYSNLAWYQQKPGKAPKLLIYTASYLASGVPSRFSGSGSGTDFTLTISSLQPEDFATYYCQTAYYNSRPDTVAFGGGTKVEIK
7.6

Query: IC50; subject: Antibody 31 (antibody, V domains shown, Humanized variant of antibody 305; also called humanized 305 variant 305-LC4 / 305-HC7) VH: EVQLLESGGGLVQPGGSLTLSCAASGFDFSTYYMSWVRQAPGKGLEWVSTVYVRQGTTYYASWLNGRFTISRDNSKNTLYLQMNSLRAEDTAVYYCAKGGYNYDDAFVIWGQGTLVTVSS VL: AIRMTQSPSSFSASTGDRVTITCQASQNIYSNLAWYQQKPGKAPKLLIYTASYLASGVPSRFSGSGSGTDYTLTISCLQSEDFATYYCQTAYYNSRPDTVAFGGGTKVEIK
7.1
